What melting point was measured for each of the following?

Recorded result, O=C(CCC(NS(=O)(=O)c1ccc(-c2ccc(N3CCCC3)cc2)cc1)C(=O)O)Nc1ccccc1 (racemic) , melting point: 234 to 236 °C (dec.)

Recorded result, CN(C)c1ccc(-c2ccc(S(=O)(=O)N[C@@H](CCC(N)=O)C(=O)O)cc2)cc1 , melting point: 213 to 215 °C

Recorded result, O=C(O)CNS(=O)(=O)c1ccc(Oc2ccc(Cl)cc2)cc1 , melting point: 162 to 164 °C

Recorded result, O=C(O)[C@@H](Cc1ccccc1)NS(=O)(=O)c1ccc(-c2ccc(C(F)(F)F)cc2)cc1 , melting point: 159 to 162 °C

Recorded result, CC(=O)Nc1ccc(NC(=O)CC[C@H](NS(=O)(=O)c2ccc(-c3ccccc3)cc2)C(=O)O)cc1 , melting point: > 230 °C (dec.)

Recorded result, CCN(C(=O)CC[C@H](NS(=O)(=O)c1ccc(-c2ccccc2)cc1)C(=O)O)c1ccccc1 , melting point: > 155 °C (dec.)

Recorded result, O=C(O)CC[C@@H](NS(=O)(=O)c1ccc(-c2ccccc2)cc1)C(=O)O , melting point: 155 to 158 °C

Recorded result, O=C(CC[C@H](NS(=O)(=O)c1ccc(-c2ccc(Cl)cc2)cc1)C(=O)O)Nc1ccc(F)cc1 , melting point: > 245 °C (dec.)
